Where these numbers come from: ChEMBL document CHEMBL1148232

MEASUREMENT_TARGET: UniProt:P11387
Sequence (P11387 whole entry): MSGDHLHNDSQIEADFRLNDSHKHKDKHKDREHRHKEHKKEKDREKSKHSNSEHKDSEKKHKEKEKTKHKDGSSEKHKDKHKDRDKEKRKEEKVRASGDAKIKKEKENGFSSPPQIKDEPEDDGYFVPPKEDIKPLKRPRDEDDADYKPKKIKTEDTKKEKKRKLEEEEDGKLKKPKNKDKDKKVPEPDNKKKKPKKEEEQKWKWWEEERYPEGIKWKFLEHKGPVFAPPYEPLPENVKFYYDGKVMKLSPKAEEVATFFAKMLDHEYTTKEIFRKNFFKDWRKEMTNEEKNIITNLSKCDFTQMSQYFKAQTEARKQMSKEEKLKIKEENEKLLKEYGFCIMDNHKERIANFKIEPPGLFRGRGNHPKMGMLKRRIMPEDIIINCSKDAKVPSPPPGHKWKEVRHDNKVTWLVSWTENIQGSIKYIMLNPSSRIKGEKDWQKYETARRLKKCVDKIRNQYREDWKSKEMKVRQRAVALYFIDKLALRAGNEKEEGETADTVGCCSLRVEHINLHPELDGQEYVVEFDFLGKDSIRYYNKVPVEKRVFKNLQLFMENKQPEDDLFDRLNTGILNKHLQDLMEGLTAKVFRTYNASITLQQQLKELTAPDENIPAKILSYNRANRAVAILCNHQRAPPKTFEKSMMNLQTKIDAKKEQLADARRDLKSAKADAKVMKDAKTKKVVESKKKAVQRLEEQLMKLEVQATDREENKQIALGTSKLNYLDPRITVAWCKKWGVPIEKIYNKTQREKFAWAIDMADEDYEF
QUANTITY_NAME: log10(IC50) (log10 of the value in µM)

• CC(=O)Oc1cc(C(=O)Nc2ccc(NC(=O)c3cc(OC(C)=O)c(OC(C)=O)c(OC(C)=O)c3)cc2)cc(OC(C)=O)c1OC(C)=O = 0.93
• CC(=O)Oc1cc(C(=O)Nc2cccc(NC(=O)c3cc(OC(C)=O)c(OC(C)=O)c(OC(C)=O)c3)c2)cc(OC(C)=O)c1OC(C)=O = 1.05
• CC(=O)Oc1ccc(C(=O)Nc2cccc(NC(=O)c3ccc(OC(C)=O)c(OC(C)=O)c3)c2)cc1OC(C)=O = 1.64
• O=C(Nc1nc2ccccc2s1)c1cc(O)c(O)c(O)c1 = 0.91
• O=C(Nc1ccccc1NC(=O)c1cc(O)c(O)c(O)c1)c1cc(O)c(O)c(O)c1 = -0.05
• O=C(Nc1cccc(NC(=O)c2cc(O)c(O)c(O)c2)c1)c1cc(O)c(O)c(O)c1 = 0.20
• O=C(Nc1ccc(NC(=O)c2cc(O)c(O)c(O)c2)cc1)c1cc(O)c(O)c(O)c1 = 0.15

====

MEASUREMENT_TARGET: DNA topoisomerase II (Homo sapiens, UniProt P11388+Q02880)
ASSAY_EXPLANATION: Inhibition of relaxation activities of DNA topoisomerase II with respect to pBR322 DNA
Assay type: protein assay
pKi: −log10 of the molar value.
QUANTITY_NAME: pKi

- O=C(Nc1ccccc1NC(=O)c1cc(O)c(O)c(O)c1)c1cc(O)c(O)c(O)c1: 7.13
